The reported measurements were obtained from patent US3954767A.

- System: rats treated with Triton WR-1339
- EXPERIMENTAL_DETAILS: Hypolipemic action on the rat, Triton WR-1339 method
- Type: in vivo
- SETUP_CONDITIONS: Table VI; with respect to Triton WR-1339; 2 mMoles/Kg orally
Please provide measured Percentage reduction of lipids: Triglycerides for the entries that follow.
Numbers only, in %.

Value sought for every listed compound: Percentage reduction of lipids: Triglycerides.
1. Cc1ccc(S(=O)(=O)Oc2ccc(O)c(S(=O)(=O)O)c2)cc1 [diethylamine-2,5-dihydroxybenzenesulfonate monotosylate]
2. O=C(Oc1ccc(OC(=O)c2ccccc2)c(S(=O)(=O)O)c1)c1ccccc1 [sodium 2,5-dihydroxybenzenesulfonate dibenzoate]
3. Cc1ccc(S(=O)(=O)Oc2ccc(O)c(S(=O)(=O)O)c2)cc1 [pyridine 2,5-dihydroxybenzenesulfonate monotosylate]

Reply:
32
17
36

###

- EXPERIMENTAL_DETAILS: Acute toxicity (LD50), mouse, oral, method of Reed and Muench
- Type: in vivo, mouse (albino)
- SETUP_CONDITIONS: mouse, in vivo, po, Table VI; species and route not printed in table (mouse per b12); read-out: LD50 (medium lethal dose)
OBSERVED_PROPERTY: LD50
Answer with the figure and its unit, nothing else.

>>> df
                  compound_structure_string      result
0  CC(C)(Oc1ccc(Cl)cc1)C(=O)Oc1ccc(O)c(S(=O)(=O)O)c1   900 mg/kg
1  Cc1ccc(S(=O)(=O)Oc2ccc(O)c(S(=O)(=O)O)c2)cc1  5000 mg/kg

Hi team, please reply with LD50 for each item in this list.
1. Cc1ccc(S(=O)(=O)Oc2ccc(OS(=O)(=O)c3ccc(C)cc3)c(S(=O)(=O)O)c2)cc1
2. O=C(Oc1ccc(OC(=O)c2ccccc2)c(S(=O)(=O)O)c1)c1ccccc1
3. CC(C)(Oc1ccc(Cl)cc1)C(=O)Oc1ccc(O)cc1S(=O)(=O)O
4. CC(C)(Oc1ccc(Cl)cc1)C(=O)Oc1ccc(OC(=O)C(C)(C)Oc2ccc(Cl)cc2)c(S(=O)(=O)O)c1

Reply:
1. 700 mg/kg
2. 4000 mg/kg
3. 3.35 mg/kg
4. 11000 mg/kg

###

- Tested on: mouse
- EXPERIMENTAL_DETAILS: Acute toxicity (LD50), mouse, oral, method of Reed and Muench
- Format: in vivo, mouse (albino)
- SETUP_CONDITIONS: Table VI; species and route not printed in table (mouse per b12)
Counter-ions that a name gives are not always drawn.
OBSERVED_PROPERTY: LD50 (medium lethal dose) (mg/kg)
One number for each entry, in mg/kg.

# example entries with known answers
MOLECULE	MEASURED_NUMBER
Cc1ccc(S(=O)(=O)Oc2ccc(O)c(S(=O)(=O)O)c2)cc1 [pyridine 2,5-dihydroxybenzenesulfonate monotosylate]	680
Cc1ccc(S(=O)(=O)Oc2ccc(O)c(S(=O)(=O)O)c2)cc1 [morpholine 2,5-dihydroxybenzenesulfonate monotosylate]	5.301
Cc1ccc(S(=O)(=O)Oc2ccc(O)c(S(=O)(=O)O)c2)cc1 [diethylamine-2,5-dihydroxybenzenesulfonate monotosylate]	6.588

Ask: Tell me the measured LD50 (medium lethal dose) of CC(C)(Oc1ccc(Cl)cc1)C(=O)Oc1ccc(OC(=O)C(C)(C)Oc2ccc(Cl)cc2)c(S(=O)(=O)O)c1 [magnesium salt of di-O-(p-chloro phenoxy isobutyrate) of 2,5] , please.
Reply: 4.780

###

- Test system: rats treated with Triton WR-1339
- EXPERIMENTAL_DETAILS: Hypolipemic action on the rat, Triton WR-1339 method
- Type: in vivo
- SETUP_CONDITIONS: Table VI; with respect to Triton WR-1339; 2 mMoles/Kg orally
Please provide measured Percentage reduction of lipids: Triglycerides for the entries that follow.
Numbers only, in %.

Example entries begin here.
>>> df
                                   compound                       test_system  unit_spec  measured_number
0  Cc1ccc(S(=O)(=O)Oc2ccc(O)c(S(=O)(=O)O)c2)cc1 [morpholine 2,5-dihydroxybenzenesulfonate monotosylate]  rats treated with Triton WR-1339          %               23
1  Cc1ccc(S(=O)(=O)Oc2ccc(O)c(S(=O)(=O)O)c2)cc1 [piperidine bis(2,5-dihydroxybenzenesulfonate monotosylate)]  rats treated with Triton WR-1339          %               26
2  Cc1ccc(S(=O)(=O)Oc2ccc(O)c(S(=O)(=O)O)c2)cc1 [sodium 2,5-dihydroxybenzenesulfonate monotosylate]  rats treated with Triton WR-1339          %               36

Count: 8. Required value per item: Percentage reduction of lipids: Triglycerides.
1. Cc1ccc(S(=O)(=O)Oc2ccc(O)c(S(=O)(=O)O)c2)cc1 [piperazine 2,5-dihydroxybenzenesulfonate monotosylate]
2. O=C(Oc1ccc(OC(=O)c2ccccc2)c(S(=O)(=O)O)c1)c1ccccc1 [piperazine 2,5-dihydroxybenzenesulfonate dibenzoate]
3. Cc1ccc(S(=O)(=O)Oc2ccc(O)c(S(=O)(=O)O)c2)cc1 [piperazine bis(2,5-dihydroxybenzenesulfonate monotosylate)]
4. O=C(Oc1ccc(OC(=O)c2ccccc2)c(S(=O)(=O)O)c1)c1ccccc1 [diethylamine 2,5-dihydroxybenzenesulfonate dibenzoate]
5. Cc1ccc(S(=O)(=O)Oc2ccc(OS(=O)(=O)c3ccc(C)cc3)c(S(=O)(=O)O)c2)cc1
6. O=C(Oc1ccc(OC(=O)c2ccccc2)c(S(=O)(=O)O)c1)c1ccccc1 [piperidine 2,5-dihydroxybenzenesulfonate dibenzoate]
7. O=C(Oc1ccc(OC(=O)c2ccccc2)c(S(=O)(=O)O)c1)c1ccccc1 [piperazine bis(2,5-dihydroxybenzene sulfonate dibenzoate)]
8. O=C(Oc1ccc(OC(=O)c2ccccc2)c(S(=O)(=O)O)c1)c1ccccc1 [morpholine 2,5-dihydroxybenzenesulfonate dibenzoate]

Reply:
43
18
25
14
44
19
14
17
